Test: Determination of the log P values (formic acid method) by reverse-phase HPLC
Format: physicochemical
Details: reverse-phase HPLC column (C 18), reverse-phase column (C 18), acidic range (pH 3.4), 55° C., read-out: log P (HCOOH)
Readout: chromatographic logP

Look over these answered cases.
Cc1nc(-c2cccnc2)sc1S(=O)(=O)N(C)C    1.86
Cc1nc(-c2cccnc2)sc1NC(=O)CC(F)(F)F    1.47
O=S(=O)(Nc1cnn(-c2cccnc2)c1)C(F)F    1.01
CN(C)S(=O)(=O)NC(=O)c1cnn(-c2cccnc2)c1    1.03

a. Cc1nc(-c2cccnc2)sc1NC(=O)Cc1ncccn1
b. CCOC(=O)c1cnn(-c2cccnc2)c1
Compare reported chromatographic logP values for a and b . Which is lower? Mark your answer with the label of the selected entry.
a
